Here, each record is paired with measured cytotoxicity at 10 µM data.
assay: Toxicity liver stage against HepG2, at 10uM; assay type: cell-based; design: test concentration 10 uM, cell line HepG2-A16-CD81EGFP; settings: human, HepG2-A16-CD81EGFP cells; read-out: INHIBITION

Recorded results for 3 compounds are shown here.
c1ccc(OCCSC2=NCCN2)cc1    1.52%
CCC(=O)N1CCN(C(=O)Nc2cccc(C#N)c2)[C@H]2CS(=O)(=O)C[C@H]21    -46%
COCC1CCN(C(=O)c2cn(Cc3ccccc3C(F)(F)F)nn2)C1 (stereo unspecified)    6.86%

Could you share which cytotoxicity at 10 µM value was measured for CC(=O)Nc1nc(CN2CCn3c(nnc3C3CC3)C2)cs1 ?
-7.91%

Could you share which cytotoxicity at 10 µM value was measured for Cc1cc(NCCc2c(C)n[nH]c2C)nc(-c2cccnc2)n1 ?
-0.355%

Could you share which cytotoxicity at 10 µM value was measured for O=C(NC[C@H]1OC[C@@H]2CCN(c3ccccn3)C[C@@H]21)c1ccco1 ?
1.32%

----------
assay: Toxicity liver stage against HepG2, at 10uM; assay type: cell-based; parameters: test concentration 10 uM, cell line HepG2-A16-CD81EGFP; conditions: human, HepG2-A16-CD81EGFP cells; read-out: INHIBITION
observed-property: cytotoxicity at 10 µM (%)
Write the answer as a number in %, unit excluded.

Cc1nc(CNC(C)c2ccc(OCC(=O)NC3CC3)cc2)cs1 (configuration not stated)    -2.82
CCN(CC)CC(=O)NCc1cccnc1-n1cnc2ccccc21    1.77
CC(C)CC(C#N)NC(=O)c1ccc(Oc2cccnc2)cc1 (configuration not stated)    -11.4
Cc1nc2c(c(=O)n1C)CN(C(=O)C1CCCN(CC(N)=O)C1)C2 (configuration not stated)    -6
CC(C)CC(=O)N1CC[C@H]2C[C@H](c3nccs3)O[C@@H]2C1    -0.966
Cc1nc(C(=O)N2CCC(Nc3cccnn3)CC2)cs1    6.74

Could you share which cytotoxicity at 10 µM value was measured for COc1cc(NC(=O)N(C)CC2CC2)ncn1 ?
7.09

Could you share which cytotoxicity at 10 µM value was measured for CN(Cc1ccsc1)C(=O)CN1CCCC(Cn2cncn2)C1 (configuration not stated) ?
-11.3

Could you share which cytotoxicity at 10 µM value was measured for CCOC(=O)N1CCN(C(=O)c2snnc2-c2ccc(OC)cc2)CC1 ?
3.56

----------
assay: Toxicity liver stage against HepG2, at 10uM; format: cell-based; design: test concentration 10 uM, cell line HepG2-A16-CD81EGFP; conditions: human, HepG2-A16-CD81EGFP cells; read-out: INHIBITION
observed-property: cytotoxicity at 10 µM (%)
Write the answer as a number in %, unit excluded.

Recorded results for 5 compounds are shown here.
CC(NCc1nnc2n1CCCC2)c1nc(C(C)(C)C)no1 (stereo unspecified)    -39.2
CC(=O)NC1CCCN(Cc2csc(-c3ncccn3)n2)C1 (stereo unspecified)    -13.1
O=C1NC(c2ccccc2)=N[C@@]12CC[C@@H]1CN(Cc3ccco3)C[C@@H]12    -4.34
O=C(NCCC1CCCCO1)c1cc(COc2ccccc2F)[nH]n1 (stereo unspecified)    6.57
COCc1nc2nc(O)c3c(n2n1)NC(=O)CC3c1ccc(SC)cc1 (stereo unspecified)    1.22

API: the following record is the query input.
Could you share which cytotoxicity at 10 µM value was measured for CCc1nc(C)c(-c2nccn2CC2CCN(C3CCCC3)CC2)[nH]1 ?
3.98
